test system: Staphylococcus aureus; test: Antibacterial activity against Staphylococcus aureus ATCC 25923 after 24 hr by serial dilution method; assay type: functional; conditions: ATCC 25923, 24 h
readout.label: MIC (µg/mL)

{"molecule": "Nc1nc(=O)[nH]c2c1C(c1ccccc1)c1ccc3ccccc3c1O2 (stereo unspecified)", "units.of.measure": "µg/mL", "observed": 125}
{"molecule": "Nc1nc(=O)[nH]c2c1C(c1ccccc1)c1ccc3cccnc3c1O2 (stereo unspecified)", "units.of.measure": "µg/mL", "observed": 125}
{"molecule": "Oc1ccc2c(c1)Oc1[nH]c(=S)[nH]c(=S)c1C2c1ccccc1 (stereo unspecified)", "units.of.measure": "µg/mL", "observed": 62.5}
{"molecule": "Nc1nc(=S)[nH]c2c1C(c1ccccc1)c1ccc3cccnc3c1O2 (stereo unspecified)", "units.of.measure": "µg/mL", "observed": 125}
{"molecule": "S=c1[nH]c2c(c(=S)[nH]1)C(c1ccccc1)c1c(ccc3ccccc13)O2 (stereo unspecified)", "units.of.measure": "µg/mL", "observed": 125}
{"molecule": "Nc1nc(=S)[nH]c2c1C(c1ccccc1)c1ccc(O)cc1O2 (stereo unspecified)", "units.of.measure": "µg/mL", "observed": 500}
{"molecule": "Nc1nc(=O)[nH]c2c1C(c1ccccc1)c1ccccc1O2 (stereo unspecified)", "units.of.measure": "µg/mL", "observed": 125}
{"molecule": "O=c1[nH]cnc2c1C(c1ccccc1)c1ccc3cccnc3c1O2 (stereo unspecified)", "units.of.measure": "µg/mL", "observed": 125}
{"molecule": "Nc1nc(=S)[nH]c2c1C(c1ccccc1)c1ccccc1O2 (stereo unspecified)", "units.of.measure": "µg/mL", "observed": 250}
{"molecule": "S=c1[nH]c2c(c(=S)[nH]1)C(c1ccccc1)c1ccc3cccnc3c1O2 (stereo unspecified)", "units.of.measure": "µg/mL", "observed": 62.5}
{"molecule": "Nc1nc(=S)[nH]c2c1C(c1ccccc1)c1ccc3ccccc3c1O2 (stereo unspecified)", "units.of.measure": "µg/mL", "observed": 500}
